target.or.system: human MCH-1R (human, UniProt Q99705 1-353)
Sequence (Q99705 whole entry): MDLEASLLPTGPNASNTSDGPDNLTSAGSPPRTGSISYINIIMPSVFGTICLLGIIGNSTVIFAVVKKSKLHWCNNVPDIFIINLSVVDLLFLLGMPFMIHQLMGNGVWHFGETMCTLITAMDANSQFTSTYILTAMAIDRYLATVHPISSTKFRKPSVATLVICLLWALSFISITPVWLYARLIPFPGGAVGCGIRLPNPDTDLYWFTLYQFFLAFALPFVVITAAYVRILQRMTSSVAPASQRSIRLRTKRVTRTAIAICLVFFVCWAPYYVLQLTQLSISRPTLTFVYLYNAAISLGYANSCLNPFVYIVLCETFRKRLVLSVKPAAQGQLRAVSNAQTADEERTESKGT
method.description: SPA, displacement of [125I]-[Phe13,Tyr19]-hMCH, CHO/MCH-1R membranes
Positions of bridges follow the written chain, without caps; N, C: chain ends. Non-standard residues stand in square brackets, D forms with d. No end group written: not given here. dCit = NC(=O)NCCC[C@@H](N)C(=O)O; Nle = CCCC[C@H](N)C(=O)O
experimental.readout: IC50 (nM)

P = [dR]C[Nle]LNRVYRPC-NH2 (disulfide 2-11 (inferred)) [SEQ. ID. NO. 32 (ΔAc, D-Arg^6, Nle^8, Asn^10 analog of Ac-hMCH(6-16)-NH2)]
Q = Ac-[dCit]CMLNRVYRPC-NH2 (disulfide 2-11 (inferred)) [SEQ. ID. NO. 34 (D-Cit^6, Asn^10 analog of Ac-hMCH(6-16)-NH2)]
Request: Field: lower recorded IC50 (choose P or Q ) Record your answer as the label of the chosen record.
Result: P
(P: 0.09 nM, Q: 8.3 nM)

# credit: patent US20050020492A1
